Provide the recorded pIC50 for the entries that follow.
# target-under-test: PI3K-α (PIK3CA) in MDA-MB-453 cells (Homo sapiens)
# Sequence (P42336 whole entry, one chain of several): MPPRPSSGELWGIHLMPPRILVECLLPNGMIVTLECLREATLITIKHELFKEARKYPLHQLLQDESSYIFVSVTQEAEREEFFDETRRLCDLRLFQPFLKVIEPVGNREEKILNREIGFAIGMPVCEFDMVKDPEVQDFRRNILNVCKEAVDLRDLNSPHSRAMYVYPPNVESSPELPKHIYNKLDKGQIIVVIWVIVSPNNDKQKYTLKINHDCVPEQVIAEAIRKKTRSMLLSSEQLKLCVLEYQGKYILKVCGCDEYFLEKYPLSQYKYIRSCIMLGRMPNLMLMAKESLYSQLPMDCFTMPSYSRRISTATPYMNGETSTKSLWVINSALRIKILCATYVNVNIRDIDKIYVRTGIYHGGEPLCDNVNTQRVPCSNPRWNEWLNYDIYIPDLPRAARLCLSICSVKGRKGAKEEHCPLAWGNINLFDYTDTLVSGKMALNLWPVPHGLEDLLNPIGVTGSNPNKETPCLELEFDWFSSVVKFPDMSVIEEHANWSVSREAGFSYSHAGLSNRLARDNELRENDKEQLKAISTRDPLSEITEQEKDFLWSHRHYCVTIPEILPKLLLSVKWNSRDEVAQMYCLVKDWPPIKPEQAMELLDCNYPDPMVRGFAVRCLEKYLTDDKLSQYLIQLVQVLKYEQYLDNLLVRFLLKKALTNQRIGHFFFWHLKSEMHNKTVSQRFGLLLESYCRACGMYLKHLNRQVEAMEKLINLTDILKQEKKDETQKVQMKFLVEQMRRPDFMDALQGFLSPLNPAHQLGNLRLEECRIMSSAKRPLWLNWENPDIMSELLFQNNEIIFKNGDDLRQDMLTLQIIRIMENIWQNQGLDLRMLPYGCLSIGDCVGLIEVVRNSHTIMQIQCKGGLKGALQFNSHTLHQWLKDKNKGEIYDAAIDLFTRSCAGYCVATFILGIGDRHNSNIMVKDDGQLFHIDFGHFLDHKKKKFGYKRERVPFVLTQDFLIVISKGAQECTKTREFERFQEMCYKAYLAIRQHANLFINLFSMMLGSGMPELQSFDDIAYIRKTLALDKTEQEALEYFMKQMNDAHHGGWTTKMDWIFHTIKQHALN
# test-protocol: PI3K-Alpha Kinase (PIK3CA) activity in vitro cell based assay (AlphaLisa SureFire)
# condition-set: read-out: PI3K-α (PIK3CA) in vitro cell based assay IC50, 0% FBS, 3 hours treatment
pIC50: −log10 of the molar value.

Example entries and their recorded answers appear below.
1) CC(Nc1ccccc1C(=O)O)c1cc(F)cc2c(=O)cc(-c3cnn(-c4cccnc4)c3)oc12 (single isomer, unassigned); 6.30 to 7.00
2) Cc1cc(C(C)Nc2ccccc2C(=O)O)c2oc(-c3cnn(-c4ccc(C#N)cc4)c3)c(C)c(=O)c2c1 (single isomer, unassigned); 7.00 to 7.30
3) Cc1cc(C(C)Nc2ccccc2C(=O)O)c2oc(-c3cnn(-c4ccccc4)c3)cc(=O)c2c1 (single isomer, unassigned); > 7.30
4) CC(Nc1ccccc1C(=O)O)c1cc(F)cc2c(=O)cc(-c3ccccn3)oc12 (single isomer, unassigned); > 7.30
5) COc1ncc(-n2cc(-c3oc4c(C(C)Nc5ccccc5C(=O)O)cc(C)cc4c(=O)c3C)cn2)cn1 (single isomer, unassigned); 7.00 to 7.30

Dear colleague, could you send me pIC50 for each of the items below? Thanks.
1. Cc1cc(C(C)Nc2ccccc2C(=O)O)c2oc(-c3cn(-c4ccc(C#N)cc4)nn3)cc(=O)c2c1 (single isomer, unassigned)
2. Cc1cc(C(C)Nc2ccccc2C(=O)O)c2oc(-c3cc(C)n[nH]3)cc(=O)c2c1 (single isomer, unassigned)
3. COc1ccc(-n2cc(-c3cc(=O)c4cc(C)cc(C(C)Nc5ccccc5C(=O)O)c4o3)cn2)cc1C#N (single isomer, unassigned)
4. Cc1cc(C(C)Nc2ccccc2C(=O)O)c2oc(-c3cnc(-c4ccccc4)s3)c(C)c(=O)c2c1 (single isomer, unassigned)
5. Cc1cc(C(C)Nc2ccccc2C(=O)O)c2oc(-c3cncc(-n4cccn4)c3)c(C)c(=O)c2c1 (single isomer, unassigned)

1. 7.00 to 7.30
2. 7.00 to 7.30
3. 6.30 to 7.00
4. 7.00 to 7.30
5. > 7.30

Dear colleague, could you send me pIC50 for each of the items below? Thanks.
1. COc1ccc(-c2oc3c(C(C)Nc4ccccc4C(=O)O)cc(C)cc3c(=O)c2C)cn1 (single isomer, unassigned)
2. COc1ccc(-n2cc(-c3cc(=O)c4cc(C)cc(C(C)Nc5ccccc5C(=O)O)c4o3)cn2)cn1 (single isomer, unassigned)

1: > 7.30; 2: 7.00 to 7.30

----------
# target-under-test: human full length PIK3KA Wild-type (p110α/p85α complex) (Homo sapiens)
# Construct: Recombinant, catalytically active human full length PIK3KA Wild-type and H1047R mutant were purchased; 6xHis (N); purchased EMD Millipore Sigma 14-602M
# test-protocol: PI3K-Alpha Kinase (PIK3CA) biochemical activity, wild-type (ADP-Glo)
# condition-set: Soy PI lipid substrate, 20 uM ATP
Provide the recorded IC50 for the entries that follow.

1. Cc1cc(C(C)Nc2ccccc2C(=O)O)c2oc(-c3ccc(C(F)(F)F)nc3)cc(=O)c2c1 (stereo not drawn) [Example 8]; 5 to 10 µM
2. COc1ncc(-n2cc(-c3cc(=O)c4cc(C)cc(C(C)Nc5ccccc5C(=O)O)c4o3)cn2)cn1 (single isomer, unassigned) [Example 105]; > 10 µM
3. Cc1cc(C(C)Nc2ccccc2C(=O)O)c2oc(-c3nccnc3C)cc(=O)c2c1 (single isomer, unassigned; isomer 2) [Example 29]; 5 to 10 µM
4. Cc1cc(C(C)Nc2ccccc2C(=O)O)c2oc(-c3ccc(F)nc3)cc(=O)c2c1 (single isomer, unassigned; isomer 1) [Example 35]; > 10 µM
5. Cc1cc(C(C)Nc2ccccc2C(=O)O)c2oc(-c3ccccn3)c(C(F)(F)F)c(=O)c2c1 (single isomer, unassigned) [Example 67]; 1 to 5 µM

Query (molecule): Cc1cc(C(C)Nc2cccc(F)c2C(=O)O)c2oc(-c3cnn(-c4ccc(C#N)cc4)c3)cc(=O)c2c1 (stereo not drawn) [Example 101] ; field requested: IC50
0.5 to 1 µM

----------
Provide the recorded pIC50 for the entries that follow.
# target-under-test: human full length PIK3KA H1047R mutant (p110α/p85α complex) (Homo sapiens, UniProt P42336, H1047R)
# Construct: Recombinant, catalytically active human full length PIK3KA Wild-type and H1047R mutant were purchased; 6xHis (N); purchased EMD Millipore Sigma 14-792M
# Sequence (P42336 whole entry H1047R): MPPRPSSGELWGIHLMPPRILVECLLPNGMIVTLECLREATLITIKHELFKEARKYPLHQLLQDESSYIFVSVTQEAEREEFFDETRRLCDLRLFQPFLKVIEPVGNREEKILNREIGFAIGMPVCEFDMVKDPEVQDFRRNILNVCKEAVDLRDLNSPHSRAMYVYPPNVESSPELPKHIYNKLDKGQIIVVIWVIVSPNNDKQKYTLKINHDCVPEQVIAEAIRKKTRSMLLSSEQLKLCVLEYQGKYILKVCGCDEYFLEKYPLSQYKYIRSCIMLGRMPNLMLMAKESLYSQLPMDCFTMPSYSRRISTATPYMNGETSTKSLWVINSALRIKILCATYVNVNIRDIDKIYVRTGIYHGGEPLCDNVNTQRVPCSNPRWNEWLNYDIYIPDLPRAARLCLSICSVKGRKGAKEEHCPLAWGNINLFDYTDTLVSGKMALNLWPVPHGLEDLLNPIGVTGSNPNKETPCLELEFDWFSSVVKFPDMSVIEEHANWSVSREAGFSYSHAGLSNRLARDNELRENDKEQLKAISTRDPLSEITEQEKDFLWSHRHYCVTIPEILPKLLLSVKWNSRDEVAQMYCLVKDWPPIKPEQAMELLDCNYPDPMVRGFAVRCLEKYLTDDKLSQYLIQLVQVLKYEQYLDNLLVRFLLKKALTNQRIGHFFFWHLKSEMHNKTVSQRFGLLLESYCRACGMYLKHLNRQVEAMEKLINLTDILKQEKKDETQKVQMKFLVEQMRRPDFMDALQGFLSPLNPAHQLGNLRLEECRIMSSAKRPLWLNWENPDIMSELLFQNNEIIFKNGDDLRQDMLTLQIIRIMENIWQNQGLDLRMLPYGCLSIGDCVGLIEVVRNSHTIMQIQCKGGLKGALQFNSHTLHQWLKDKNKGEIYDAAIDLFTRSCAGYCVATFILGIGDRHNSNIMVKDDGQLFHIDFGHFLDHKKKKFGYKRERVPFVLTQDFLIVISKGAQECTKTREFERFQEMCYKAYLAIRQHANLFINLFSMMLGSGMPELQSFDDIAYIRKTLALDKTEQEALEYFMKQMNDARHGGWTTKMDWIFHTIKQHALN
# Sequence (P27986 whole entry partner): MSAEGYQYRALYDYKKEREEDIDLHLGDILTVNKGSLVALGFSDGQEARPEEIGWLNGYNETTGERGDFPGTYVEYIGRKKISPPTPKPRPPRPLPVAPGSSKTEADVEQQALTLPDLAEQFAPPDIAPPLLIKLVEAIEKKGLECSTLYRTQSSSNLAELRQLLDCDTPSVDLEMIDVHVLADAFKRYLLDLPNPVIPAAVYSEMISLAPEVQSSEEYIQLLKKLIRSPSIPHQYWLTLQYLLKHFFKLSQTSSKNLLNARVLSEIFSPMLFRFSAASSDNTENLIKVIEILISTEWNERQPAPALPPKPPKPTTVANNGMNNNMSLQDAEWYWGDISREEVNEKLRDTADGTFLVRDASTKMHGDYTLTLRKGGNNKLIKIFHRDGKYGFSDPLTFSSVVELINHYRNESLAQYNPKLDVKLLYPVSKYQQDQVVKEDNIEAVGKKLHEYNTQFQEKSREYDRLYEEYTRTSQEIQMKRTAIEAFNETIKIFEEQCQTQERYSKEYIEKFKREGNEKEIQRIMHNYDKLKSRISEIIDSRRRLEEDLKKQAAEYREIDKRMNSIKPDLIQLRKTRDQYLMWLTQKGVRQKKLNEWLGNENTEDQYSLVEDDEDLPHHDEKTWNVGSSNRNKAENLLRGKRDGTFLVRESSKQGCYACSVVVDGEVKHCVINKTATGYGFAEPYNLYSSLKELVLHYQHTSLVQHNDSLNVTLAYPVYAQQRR
# test-protocol: PI3K-Alpha Kinase (PIK3CA) biochemical activity, H1047R mutant (ADP-Glo)
# condition-set: Soy PI lipid substrate, 20 uM ATP
pIC50: −log10 of the molar value.

Example entries and their recorded answers appear below.
1) Cc1cc(C(C)Nc2ccccc2C(=O)O)c2oc(-c3cnn(-c4ccc(S(C)(=O)=O)cc4)c3)cc(=O)c2c1 (single isomer, unassigned) [Example 88]; > 6.30
2) COc1ccc(-n2cc(-c3cc(=O)c4cc(C)cc(C(C)Nc5ccccc5C(=O)O)c4o3)cn2)cc1 (single isomer, unassigned) [Example 79]; > 6.30

Please find the next compound below.
Query (compound): Cc1cc(C(C)Nc2ccccc2C(=O)O)c2oc(-c3cnn(-c4ccc(C#N)c(F)c4)c3)cc(=O)c2c1 (single isomer, unassigned) [Example 85] ; field requested: pIC50
> 6.30

----------
Provide the recorded pIC50 for the entries that follow.
# target-under-test: human full length PIK3KA Wild-type (p110α/p85α complex) (Homo sapiens, UniProt P42336)
# Construct: Recombinant, catalytically active human full length PIK3KA Wild-type and H1047R mutant were purchased; 6xHis (N); purchased EMD Millipore Sigma 14-602M
# test-protocol: PI3K-Alpha Kinase (PIK3CA) biochemical activity, wild-type (ADP-Glo)
# condition-set: Soy PI lipid substrate, 20 uM ATP
pIC50: −log10 of the molar value.

1) Cc1cc(C(C)Nc2cccc(F)c2C(=O)O)c2oc(-c3cnn(-c4ccc(C#N)cc4)c3)cc(=O)c2c1 (single isomer, unassigned; isomer 1) [Example 112]; < 5.00
2) Cc1cc(C(C)Nc2ccccc2C(=O)O)c2oc(-c3nnc(-c4ccc(C#N)cc4)o3)cc(=O)c2c1 (single isomer, unassigned; isomer 2); < 5.00
3) Cc1c(-c2cncc(F)c2)oc2c(C(C)Nc3ccc(Cl)nc3C(=O)O)cc(C(F)(F)F)cc2c1=O (single isomer, unassigned; isomer 1); 5.30 to 6.00
4) Cc1cc(C(C)Nc2ccccc2C(=O)O)c2oc(-c3cnc(C#CC(C)(C)O)nc3)cc(=O)c2c1 (single isomer, unassigned); 5.00 to 5.30

Dear colleague, could you send me pIC50 for each of the items below? Thanks.
1. Cc1cc(C(C)Nc2ccccc2C(=O)O)c2oc(-c3cnc(-c4ccccc4)s3)c(C)c(=O)c2c1 (single isomer, unassigned)
2. Cc1cc(C(C)Nc2cccnc2C(=O)O)c2oc(-c3cncc(F)c3)c(C)c(=O)c2c1 (single isomer, unassigned; isomer 1)
3. Cc1cc(C(C)Nc2ccccc2C(=O)O)c2oc(-c3ccc(C(F)(F)F)nc3)cc(=O)c2c1 (single isomer, unassigned; isomer 2) [Example 38]

1. > 6.30
2. < 5.00
3. < 5.00

----------
# target-under-test: human full length PIK3KA H1047R mutant (p110α/p85α complex) (Homo sapiens, UniProt P42336, H1047R)
# Construct: Recombinant, catalytically active human full length PIK3KA Wild-type and H1047R mutant were purchased; 6xHis (N); purchased EMD Millipore Sigma 14-792M
# test-protocol: PI3K-Alpha Kinase (PIK3CA) biochemical activity, H1047R mutant (ADP-Glo)
# condition-set: Soy PI lipid substrate, 20 uM ATP
pIC50: −log10 of the molar value.
Provide the recorded pIC50 for the entries that follow.

Example entries and their recorded answers appear below.
1. Cc1cc(C(C)Nc2ccccc2C(=O)O)c2oc(-c3cnc(C)nc3)cc(=O)c2c1 (stereo not drawn) [Example 13]; 6.00 to 6.30
2. Cc1cc(C(C)Nc2ccccc2C(=O)O)c2oc(-c3ccccn3)c(C(F)(F)F)c(=O)c2c1 (single isomer, unassigned) [Example 67]; > 6.30
3. Cc1cc(C(C)Nc2ccc(Cl)nc2C(=O)O)c2oc(-c3ccccn3)cc(=O)c2c1 (single isomer, unassigned; isomer 1) [Example 27]; > 6.30
4. Cc1cc(C(C)Nc2ccccc2C(=O)O)c2oc(-c3cnn(-c4ccccc4)c3)cc(=O)c2c1 (single isomer, unassigned) [Example 80]; > 6.30
5. Cc1cc(C(C)Nc2ccccc2C(=O)O)c2oc(-c3ccc(C4(C#N)CC4)nc3)c(C)c(=O)c2c1 (single isomer, unassigned) [Example 89]; > 6.30

Query (compound): Cc1cc(C(C)Nc2ccc(F)cc2C(=O)O)c2oc(-c3cccnc3)c(C)c(=O)c2c1 (single isomer, unassigned; isomer 1) [Example 120] ; field requested: pIC50
> 6.30
